Ref: patent US11339161B2

# reported inhibition at 10 µM; entries follow
Biological target: UniProtKB Q12851
Sequence (Q12851 1-820): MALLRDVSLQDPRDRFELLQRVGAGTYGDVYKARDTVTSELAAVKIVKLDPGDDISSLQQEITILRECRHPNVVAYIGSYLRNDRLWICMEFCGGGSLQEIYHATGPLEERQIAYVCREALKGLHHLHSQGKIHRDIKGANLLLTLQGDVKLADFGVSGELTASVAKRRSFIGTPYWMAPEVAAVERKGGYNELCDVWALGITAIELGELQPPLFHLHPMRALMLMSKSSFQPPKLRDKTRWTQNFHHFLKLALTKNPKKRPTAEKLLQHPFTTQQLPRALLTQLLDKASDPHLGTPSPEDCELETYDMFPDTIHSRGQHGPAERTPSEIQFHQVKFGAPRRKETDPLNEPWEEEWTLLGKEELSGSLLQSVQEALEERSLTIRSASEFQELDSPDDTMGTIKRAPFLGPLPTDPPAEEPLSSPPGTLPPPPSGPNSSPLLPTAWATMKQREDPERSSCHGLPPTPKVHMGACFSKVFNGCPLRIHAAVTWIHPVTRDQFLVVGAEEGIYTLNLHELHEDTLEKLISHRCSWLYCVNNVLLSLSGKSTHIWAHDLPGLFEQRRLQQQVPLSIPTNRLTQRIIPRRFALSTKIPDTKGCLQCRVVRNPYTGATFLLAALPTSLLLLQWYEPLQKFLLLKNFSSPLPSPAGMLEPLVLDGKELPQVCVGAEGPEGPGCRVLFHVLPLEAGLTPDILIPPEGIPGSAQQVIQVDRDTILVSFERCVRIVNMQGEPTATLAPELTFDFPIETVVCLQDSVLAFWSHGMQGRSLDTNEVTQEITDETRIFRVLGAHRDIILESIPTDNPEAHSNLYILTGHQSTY
Experiment: Z'-LYTE SelectScreen biochemical kinase assay MAP4K2 (GCK)
Details: read-out: % Inhibition mean MAP4K2 (GCK)
TEST READOUT: inhibition at 10 µM (%)

1. CCn1nc(Cl)c2c1CCC(Nc1nc3c(-c4ccc(F)cc4C)cccn3n1)C2 (stereo not drawn): 16
2. CCn1ncc2c1CC[C@@H](Nc1nc3c(-c4ccc(F)c(Cl)c4)cccn3n1)C2: 3
3. CCn1ncc2c1CCC(Nc1nc3c(-c4cncc(Cl)c4)cccn3n1)C2 (stereo not drawn): 49
4. CCn1ncc2c1C(C)CC(Nc1nc3c(-c4cc(F)c(F)c(F)c4)cccn3n1)C2 (stereo not drawn): 17
5. Cc1cc(F)ccc1-c1cccn2nc(Nc3ccc4c(cnn4C)c3)nc12: 43
6. CCn1ncc2c1CCC(Nc1nc3c(-c4cccc(Cl)c4)cccn3n1)C2 (stereo not drawn): 22
7. CCCn1ncc2c1CCC(Nc1nc3c(-c4ccc(F)cc4C)cccn3n1)C2 (stereo not drawn): 9
8. CCn1ncc2c1CCC(Nc1nc3c(-c4ccc(C)nc4)cccn3n1)C2 (stereo not drawn): 14
9. CCn1ncc2c1CCC(Nc1nc3c(-c4ccc(OC)nc4)cccn3n1)C2 (stereo not drawn): 26
10. CCn1ncc2c1CCC(Nc1nc3c(-c4cccnc4)cccn3n1)C2 (stereo not drawn): 14
11. Cc1cc(F)ccc1-c1cccn2nc(NC3CCc4c(cnn4C)C3)nc12 (stereo not drawn): 8
12. CCCCCn1ncc2c1CCC(Nc1nc3c(-c4ccc(F)cc4C)cccn3n1)C2 (stereo not drawn): 11
13. CCn1ncc2c1CCC(Nc1nc3c(-c4ccc(F)cc4C)cccn3n1)C2 (stereo not drawn): 21
14. CCn1nnc2c1CCC(Nc1nc3c(-c4ccc(F)cc4C)cccn3n1)C2 (stereo not drawn): 22
15. CCn1ncc2c1CCC(Nc1nc3c(-c4ccccc4)cccn3n1)C2 (stereo not drawn): 13
16. CCCCn1ncc2c1CCC(Nc1nc3c(-c4ccc(F)cc4C)cccn3n1)C2 (stereo not drawn): 19
17. Cc1cc(F)ccc1-c1cccn2nc(NC3CCc4c(cnn4C(C)C)C3)nc12 (stereo not drawn): 26
18. CCn1ncc2c1CCC(Nc1nc3c(-c4ccccc4C)cccn3n1)C2 (stereo not drawn): 16

* * *

Target: MAP4K2 (GCK) (Homo sapiens, UniProt Q12851)
Sequence (Q12851 1-820): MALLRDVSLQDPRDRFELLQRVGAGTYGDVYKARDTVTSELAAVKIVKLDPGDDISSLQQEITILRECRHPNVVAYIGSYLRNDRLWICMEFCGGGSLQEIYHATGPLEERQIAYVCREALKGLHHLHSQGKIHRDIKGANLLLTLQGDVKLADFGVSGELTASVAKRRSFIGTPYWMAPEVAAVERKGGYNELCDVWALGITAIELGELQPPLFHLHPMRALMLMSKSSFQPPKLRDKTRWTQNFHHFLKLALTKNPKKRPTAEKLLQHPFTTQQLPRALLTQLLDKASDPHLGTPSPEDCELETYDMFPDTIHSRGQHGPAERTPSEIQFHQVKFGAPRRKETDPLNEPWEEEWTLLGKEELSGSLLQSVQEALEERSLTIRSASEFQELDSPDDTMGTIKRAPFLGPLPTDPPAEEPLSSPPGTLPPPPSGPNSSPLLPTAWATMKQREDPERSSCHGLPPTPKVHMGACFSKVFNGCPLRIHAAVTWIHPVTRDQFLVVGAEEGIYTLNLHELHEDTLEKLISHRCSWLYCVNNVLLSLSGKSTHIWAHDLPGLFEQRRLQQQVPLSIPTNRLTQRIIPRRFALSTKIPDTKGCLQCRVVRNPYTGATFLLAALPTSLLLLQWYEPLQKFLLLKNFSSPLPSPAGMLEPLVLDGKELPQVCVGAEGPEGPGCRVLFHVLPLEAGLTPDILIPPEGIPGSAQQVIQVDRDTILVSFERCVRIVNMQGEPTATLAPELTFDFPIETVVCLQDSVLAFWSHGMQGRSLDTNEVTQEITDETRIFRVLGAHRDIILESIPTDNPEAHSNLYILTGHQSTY
Experiment: Z'-LYTE SelectScreen biochemical kinase assay MAP4K2 (GCK)
Conditions: read-out: % Inhibition mean MAP4K2 (GCK)
inhibition at 10 µM values, listed per item
TEST READOUT: inhibition at 10 µM (%)

1. CCn1ncc2c1CCC(Nc1nc3c(-c4ccc(F)cc4)cccn3n1)C2 (stereo not drawn): 30
2. CCn1ncc2c1CC[C@H](Nc1nc3c(-c4ccc(F)c(Cl)c4)cccn3n1)C2: 12
3. CCn1ncc2c1CC[C@@H](Nc1nc3c(-c4ccc(F)cc4C)cccn3n1)C2: 25
4. Cc1cc(F)ccc1-c1cccn2nc(NC3CCc4cnn(C)c4C3)nc12 (stereo not drawn): 13
5. CCn1ncc2c1CCC(Nc1nc3c(-c4cnccc4OC)cccn3n1)C2 (stereo not drawn): 28
6. Cc1cc(F)ccc1-c1cccn2nc(NC3CCc4c(cnn4CC(C)C)C3)nc12 (stereo not drawn): 24
7. CCn1ncc2c1CCC(Nc1nc3c(-c4cccnc4OC)cccn3n1)C2 (stereo not drawn): 9
8. CCn1ncc2c1CCC(Nc1nc3c(-c4cncc(OC)c4)cccn3n1)C2 (stereo not drawn): 7
9. CCc1nn(C)c2c1CCC(Nc1nc3c(-c4ccc(F)cc4C)cccn3n1)C2 (stereo not drawn): 27

* * *

Reported inhibition at 10 µM values follow for various molecules
Target: MAP4K2 (GCK) (Homo sapiens, UniProt Q12851)
Sequence (Q12851 1-820): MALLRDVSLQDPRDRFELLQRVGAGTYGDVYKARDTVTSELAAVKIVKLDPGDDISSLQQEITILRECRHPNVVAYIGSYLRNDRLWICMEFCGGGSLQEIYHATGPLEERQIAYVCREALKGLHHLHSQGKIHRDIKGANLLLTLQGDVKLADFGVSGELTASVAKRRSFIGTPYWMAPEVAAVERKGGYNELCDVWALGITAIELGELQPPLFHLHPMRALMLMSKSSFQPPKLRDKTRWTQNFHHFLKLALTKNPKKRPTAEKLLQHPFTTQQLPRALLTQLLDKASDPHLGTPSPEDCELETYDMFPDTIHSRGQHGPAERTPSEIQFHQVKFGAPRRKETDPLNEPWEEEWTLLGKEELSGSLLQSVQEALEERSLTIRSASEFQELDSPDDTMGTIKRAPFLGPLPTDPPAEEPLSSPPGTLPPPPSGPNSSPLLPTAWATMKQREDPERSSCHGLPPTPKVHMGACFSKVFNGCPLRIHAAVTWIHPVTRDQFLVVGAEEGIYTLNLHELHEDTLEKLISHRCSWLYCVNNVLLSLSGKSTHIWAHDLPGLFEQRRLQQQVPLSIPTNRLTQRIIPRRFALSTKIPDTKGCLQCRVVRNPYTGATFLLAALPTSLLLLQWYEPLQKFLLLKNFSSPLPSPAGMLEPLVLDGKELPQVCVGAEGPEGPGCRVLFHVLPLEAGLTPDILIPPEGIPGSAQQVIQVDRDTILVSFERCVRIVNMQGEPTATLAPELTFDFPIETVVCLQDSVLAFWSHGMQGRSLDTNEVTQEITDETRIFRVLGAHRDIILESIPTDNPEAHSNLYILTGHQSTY
Test: Z'-LYTE SelectScreen biochemical kinase assay MAP4K2 (GCK)
Details: 10 μmolar compound concentration; ATP at Km app; read-out: MAP4K2 (GCK) inhibition
TEST READOUT: inhibition at 10 µM

1) CCCCn1ncc2c1CCC(Nc1nc3c(-c4ccc(F)cc4C)cccn3n1)C2 (stereo not drawn) [Example 46]: < 40%
2) CCn1ncc2c1CCC(Nc1nc3c(-c4ccccc4C)cccn3n1)C2 (stereo not drawn) [Example 56]: < 40%
3) CCn1ncc2c1CCC(Nc1nc3c(-c4ccccc4)cccn3n1)C2 (stereo not drawn) [Example 57]: < 40%
4) CCn1ncc2c1CC[C@@H](Nc1nc3c(-c4ccc(F)c(Cl)c4)cccn3n1)C2 [Example R-61]: < 40%
5) CCCn1ncc2c1CCC(Nc1nc3c(-c4ccc(F)cc4C)cccn3n1)C2 (stereo not drawn) [Example 43]: < 40%
6) CC1(C)NC(=O)c2ccc(Nc3nc4c(-c5cccc(F)c5)cccn4n3)cc21 [Cpd. 302 in WO09155551, reference compound]: > 80%
7) CCn1ncc2c1CCC(Nc1nc3c(-c4ccc(OC)nc4)cccn3n1)C2 (stereo not drawn) [Example 71]: < 40%
8) CCn1nnc2c1CCC(Nc1nc3c(-c4ccc(F)cc4C)cccn3n1)C2 (stereo not drawn) [Example 51]: < 40%
9) CCc1nn(C)c2c1CCC(Nc1nc3c(-c4ccc(F)cc4C)cccn3n1)C2 (stereo not drawn) [Example 54]: < 40%
10) Cc1cc(F)ccc1-c1cccn2nc(NC3CCc4cnn(C)c4C3)nc12 (stereo not drawn) [Example 40]: < 40%
11) CCn1ncc2c1CCC(Nc1nc3c(-c4cccc(Cl)c4)cccn3n1)C2 (stereo not drawn) [Example 59]: < 40%
12) Fc1cccc(-c2cccn3nc(Nc4ccc5[nH]cnc5c4)nc23)c1 [Cpd. 293 in WO09155551, reference compound]: > 80%
13) CC1(C)C(=O)Nc2ccc(Nc3nc4c(-c5cccc(F)c5)cccn4n3)cc21 [Cpd. 263 in WO09155551, reference compound]: > 80%
14) CCn1ncc2c1CCC(Nc1nc3c(-c4cnccc4OC)cccn3n1)C2 (stereo not drawn) [Example 68]: < 40%
15) CCn1ncc2c1CCC(Nc1nc3c(-c4cncc(OC)c4)cccn3n1)C2 (stereo not drawn) [Example 70]: < 40%
16) CCn1ncc2c1CCC(Nc1nc3c(-c4ccc(F)cc4C)cccn3n1)C2 (stereo not drawn) [Example 42]: < 40%
17) Cc1cc(F)ccc1-c1cccn2nc(Nc3ccc4c(cnn4C)c3)nc12 [Example 9]: 40 to 80%
18) Cc1cc(F)ccc1-c1cccn2nc(NC3CCc4c(cnn4CC(C)C)C3)nc12 (stereo not drawn) [Example 45]: < 40%
19) Cc1cc(F)ccc1-c1cccn2nc(NC3CCc4c(cnn4C(C)C)C3)nc12 (stereo not drawn) [Example 44]: < 40%
20) CCn1ncc2c1CC[C@H](Nc1nc3c(-c4ccc(F)c(Cl)c4)cccn3n1)C2 [Example S-61]: < 40%
21) CCn1ncc2c1CC[C@@H](Nc1nc3c(-c4ccc(F)cc4C)cccn3n1)C2 [Example R-42]: < 40%
22) CCn1ncc2c1CCC(Nc1nc3c(-c4cccnc4OC)cccn3n1)C2 (stereo not drawn) [Example 69]: < 40%
23) CCn1ncc2c1CCC(Nc1nc3c(-c4cccnc4)cccn3n1)C2 (stereo not drawn) [Example 63]: < 40%
24) CCn1ncc2c1C(C)CC(Nc1nc3c(-c4cc(F)c(F)c(F)c4)cccn3n1)C2 (stereo not drawn) [Example 49]: < 40%
25) CCn1ncc2c1CCC(Nc1nc3c(-c4cncc(Cl)c4)cccn3n1)C2 (stereo not drawn) [Example 73]: 40 to 80%
26) Cc1cc(F)ccc1-c1cccn2nc(NC3CCc4c(cnn4C)C3)nc12 (stereo not drawn) [Example 10]: < 40%
27) CCCCCn1ncc2c1CCC(Nc1nc3c(-c4ccc(F)cc4C)cccn3n1)C2 (stereo not drawn) [Example 47]: < 40%
28) CCn1ncc2c1CCC(Nc1nc3c(-c4ccc(C)nc4)cccn3n1)C2 (stereo not drawn) [Example 67]: < 40%
29) CCn1nc(Cl)c2c1CCC(Nc1nc3c(-c4ccc(F)cc4C)cccn3n1)C2 (stereo not drawn) [Example 48]: < 40%
30) CCn1ncc2c1CCC(Nc1nc3c(-c4ccc(F)cc4)cccn3n1)C2 (stereo not drawn) [Example 55]: < 40%
